assay: LC-MS; format: in vivo, human; conditions: fasted baseline plasma, 90 volunteers
Quantity kind: plasma concentration (mean ± SD) (µM)
Write the answer as a number in µM, unit excluded.

O=C(O)CNC(=O)c1ccccc1	387

Query block: Recorded plasma concentration (mean ± SD) of CCOC(=O)c1cc(O)c(O)c(O)c1 [3,4,5-trihydroxybenzene ethyl ester] , please.
Result block: 0.0053

Query block: Recorded plasma concentration (mean ± SD) of Cn1c(=O)c2c(ncn2C)n(C)c1=O [1,3,7-Trimethylxanthine, reference compound] , please.
Result block: 179

Query block: Recorded plasma concentration (mean ± SD) of `Cn1c(=O)[nH]c(=O)c2[nH]cnc21` , please.
Result block: 5.3
